Experiment: chemical genetic growth profiling, strain panel (AID 1159580);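 also: tested at 20 µM; growth read once vehicle control cultures reached saturation at 30 °C; 1 = growth at the plate median or of vehicle wells; lower values mean less growth of the strain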
Details: S. cerevisiae deletion strains, growth OD, locus YOR106W, strain vam3, hits give low values
In all, about 5,500 compounds went through this assay and about 2,000 (36%) were called active. Another 18% or so got no clear call; they are omitted. This is one part of the list.
Measured Quantity: normalized growth

- Compound: "CC(C)(C)NCC(O)c1ccccc1Cl (stereo not given)"
  Value Measured: "1.01 (inactive)"
- Compound: "C=C(C)C1CC=C(CO)CC1 (stereo not given)"
  Value Measured: "0.989 (inactive)"
- Compound: "COC(=O)C[C@H]1C(C)(C)C(=O)[C@@H]2CC3=C4CC(=O)O[C@@H](c5ccoc5)[C@]4(C)CCC3[C@@]1(C)C2=O (stereo not given in full)"
  Value Measured: "0.991 (inactive)"
- Compound: "Cc1ccsc1/C=C/C1=NCCCN1C"
  Value Measured: "0.994 (inactive)"
- Compound: "C/C=C/c1ccc2c(c1)OCO2"
  Value Measured: "1.01 (inactive)"

====

Assay: chemical genetic growth profiling, strain panel (AID 1159580);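 also: tested at 20 µM; growth read once vehicle control cultures reached saturation at 30 °C; 1 = growth at the plate median or of vehicle wells; lower values mean less growth of the strain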
Conditions: S. cerevisiae deletion strains, growth OD, locus YKL009W, strain mrt4, hits give low values
The campaign covered roughly 5,500 compounds. About 2,000 (36%) were called active. Inconclusive results (about 18%) are left out. The list shows a part of the results.
Form field: normalized growth (one value per entry).

- Compound: "c1ccc2c(c1)cc1ccc3cccc4ccc2c1c34"
  normalized growth: "0.994 (inactive)"
- Compound: "CCC(Cc1c(I)cc(I)c(N)c1I)C(=O)O (configuration not stated)"
  normalized growth: "0.974 (inactive)"
- Compound: "CC(=O)OC1CC(OC(C)=O)C2(C)C(CC(OC(C)=O)C3(C)C2CCC2(C)C(c4ccoc4)CC4OC423)C1(C)C (configuration not stated)"
  normalized growth: "0.984 (inactive)"
- Compound: "CC(Cc1ccc(O)c(O)c1)C(C)Cc1ccc(O)c(O)c1 (configuration not stated)"
  normalized growth: "0.993 (inactive)"
- Compound: "CCCC(C)C1(CC)C(=O)NC(=O)NC1=O (configuration not stated)"
  normalized growth: "1.03 (inactive)"
- Compound: "Cc1ccsc1/C=C/C1=NCCCN1C"
  normalized growth: "0.982 (inactive)"
- Compound: "C=CC(C)(O)CC/C=C(\\C)CCC=C(C)C (configuration not stated)"
  normalized growth: "0.952 (inactive)"
- Compound: "C=CC(C1=CC(=O)C(OC)=CC1=O)c1ccc(OC)cc1 (configuration not stated)"
  normalized growth: "0.944 (inactive)"
- Compound: "C[C@H](N)[C@H](O)c1ccc(O)c(O)c1"
  normalized growth: "0.994 (inactive)"
- Compound: "Nc1nc2c(ncn2C2C[C@H](O)[C@@H](CO)O2)c(=O)[nH]1 (some centres not stated)"
  normalized growth: "1.02 (inactive)"
- Compound: "CC(C)N(C(=O)SCC(Cl)=C(Cl)Cl)C(C)C"
  normalized growth: "1.01 (inactive)"
- Compound: "COC(=O)Oc1ccccc1C(=O)O"
  normalized growth: "1.01 (inactive)"

====

Experiment: chemical genetic growth profiling, strain panel (AID 1159580);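 also: tested at 20 µM; growth read once vehicle control cultures reached saturation at 30 °C; 1 = growth at the plate median or of vehicle wells; lower values mean less growth of the strain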
Settings: S. cerevisiae deletion strains, growth OD, locus YDR477W, strain SNF1, hits give low values
Out of some 5,500 compounds screened, about 2,000 (36%) were called active. Inconclusive results (about 18%) are left out. The list shows a part of the results.
# normalized growth values compiled below

- Record Smiles: "FC(F)(F)c1cccc(NNC(=S)Nc2ccccc2)c1"
  normalized growth: "0.882 (inactive)"
- Record Smiles: "Cc1c2c(=O)[nH]ncc2c(-c2ccccc2)n1-c1ccc([N+](=O)[O-])cc1"
  normalized growth: "0.925 (inactive)"
- Record Smiles: "O=C(NCCSCc1cccc(C(F)(F)F)c1)c1ccc(Cl)cc1"
  normalized growth: "0.894 (inactive)"
